Numbers sourced from patent US12338206B2.

Experimental system: TRβ LBD (Homo sapiens)
Construct: (or 5 μl TRβ LBD, 4×, 2 nM)
Sequence (P10828 217-461 limits assumed): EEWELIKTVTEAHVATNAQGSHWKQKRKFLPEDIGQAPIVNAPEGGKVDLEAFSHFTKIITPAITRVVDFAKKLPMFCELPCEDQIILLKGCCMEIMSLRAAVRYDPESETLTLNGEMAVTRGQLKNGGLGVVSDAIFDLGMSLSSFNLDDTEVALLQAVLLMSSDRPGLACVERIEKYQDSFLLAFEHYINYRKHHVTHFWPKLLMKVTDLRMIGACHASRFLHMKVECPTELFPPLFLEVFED
Method description: In vitro thyroid hormone receptor binding assay (TR-FRET coactivator assay), TRβ LBD
Conditions used: TR-FRET, TRβ LBD, Biotin-SRC2-2, 1 hour at room temperature
Quick list: pEC50 per entry.
Scale note: pEC50 = -log10(concentration in M).

N#Cc1nn(-c2cc(Cl)c(Oc3ccc4[nH]cnc4c3)c(Cl)c2)c(=O)[nH]c1=O [Compound I13]; 5.58

Now for a further compound.
Which pEC50 is reported for this compound? N#Cc1nn(-c2cc(Cl)c(Oc3ccc4[nH]c(=O)oc4c3)c(Cl)c2)c(=O)[nH]c1=O [Compound I20] 5.68
